- tgt: HLA-A1101 (Homo sapiens, UniProt P04439, A114D/D185E/E176A/F33Y/L180Q/S129P/T187R)
- Construct: expressed in transfected cells; host or cells: HMy2.CIR
- measurement_protocol: cell-based
- Assay type: binding
- recorded_conditions: HLA-A1101 HMy2.CIR cells; competitor peptide 5μM; 24 hours; flow cytometry; read-out: 5μM Inhibition (%)
Residues, ends and D or L forms follow the SMILES beside them.
Label scheme, based on inhibition at 5 µM: low = under 10%, middle = from 10% up to 40%, high = 40% and over

Field: example entries. Status: answers known.
[[record]]
compound = "CC[C@H](C)[C@H](NC(=O)[C@H](CC(C)C)NC(=O)[C@@H](N)CCCCN)C(=O)NCC(=O)N[C@H](C(=O)N[C@@H](Cc1c[nH]cn1)C(=O)N[C@@H](CC(N)=O)C(=O)N[C@@H](CO)C(=O)N[C@H](C(=O)O)C(C)C)[C@@H](C)O [Epitope P33] (H-KLIGTHNSV-OH; N-terminus and C-terminus assumed)"
class_name = "low"

[[record]]
compound = "CC[C@H](C)[C@H](NC(=O)[C@@H](NC(=O)[C@H](CC(C)C)NC(=O)[C@@H](NC(=O)[C@H](CCCNC(=N)N)NC(=O)[C@@H](NC(=O)[C@H](CC(C)C)NC(=O)[C@H](CC(C)C)NC(=O)[C@@H](N)Cc1ccccc1)[C@@H](C)O)[C@@H](C)CC)[C@@H](C)O)C(=O)O [Epitope P2]"
class_name = "low"

[[record]]
compound = "CC(C)C[C@H](NC(=O)[C@@H]1CCCN1C(=O)[C@H](CC(C)C)NC(=O)[C@H](Cc1ccc(O)cc1)NC(=O)[C@H](CCCCN)NC(=O)[C@@H](NC(=O)[C@@H](NC(=O)[C@@H](N)CCCCN)C(C)C)[C@@H](C)O)C(=O)N[C@@H](CC(=O)O)C(=O)N[C@@H](CCCCN)C(=O)O [Epitope P15] (H-KVTKYLPLDK-OH; N-terminus and C-terminus assumed)"
class_name = "high"

[[record]]
compound = "CC(C)C[C@H](NC(=O)[C@H](Cc1ccc(O)cc1)NC(=O)[C@H](CCC(=O)O)NC(=O)[C@H](CC(C)C)NC(=O)[C@@H](NC(=O)[C@@H](NC(=O)[C@@H](N)CCC(=O)O)[C@@H](C)O)C(C)C)C(=O)N[C@H](C(=O)N[C@@H](CO)C(=O)N[C@H](C(=O)O)C(C)C)C(C)C [Epitope P118] (H-ETVLEYLVSV-OH; N-terminus and C-terminus assumed)"
class_name = "middle"

[[record]]
compound = "CC(C)C[C@H](NC(=O)[C@H](Cc1ccccc1)NC(=O)[C@H](Cc1ccccc1)NC(=O)CNC(=O)[C@H](C)NC(=O)[C@@H](N)CCC(N)=O)C(=O)N[C@@H](CC(C)C)C(=O)N[C@H](C(=O)N[C@@H](CCCNC(=N)N)C(=O)O)[C@@H](C)O [Epitope P41] (H-QAGFFLLTR-OH; N-terminus and C-terminus assumed)"
class_name = "middle"


Query string: Which bin, given its inhibition at 5 µM, does CC(C)C[C@H](NC(=O)[C@H](CO)NC(=O)[C@H](Cc1ccccc1)NC(=O)[C@H](Cc1ccccc1)NC(=O)CNC(=O)[C@H](C)NC(=O)[C@@H](N)CCC(N)=O)C(=O)N[C@H](C(=O)N[C@@H](CCCCN)C(=O)O)[C@@H](C)O [Epitope P40] (H-QAGFFSLTK-OH; N-terminus and C-terminus assumed) occupy?
Result string: high

Query string: Which bin, given its inhibition at 5 µM, does CC[C@H](C)[C@H](NC(=O)[C@H](CO)NC(=O)[C@H](CO)NC(=O)[C@@H](NC(=O)[C@@H]1CCCN1C(=O)[C@H](CO)NC(=O)[C@H](C)N)[C@@H](C)CC)C(=O)N[C@@H](Cc1ccccc1)C(=O)N[C@@H](CO)C(=O)N[C@@H](CCCNC(=N)N)C(=O)O [Epitope P14] (H-ASPISSIFSR-OH; N-terminus and C-terminus assumed) occupy?
Result string: middle

Query string: Which bin, given its inhibition at 5 µM, does CC(C)C[C@H](NC(=O)[C@H](CCCCN)NC(=O)[C@H](Cc1c[nH]cn1)NC(=O)[C@H](CCCNC(=N)N)NC(=O)[C@H](CS)NC(=O)CNC(=O)CNC(=O)[C@H](CC(C)C)NC(=O)[C@@H](N)C(C)C)C(=O)O [Epitope P36] (H-VLGGCRHKL-OH; N-terminus and C-terminus assumed) occupy?
Result string: middle

Query string: Which bin, given its inhibition at 5 µM, does CC[C@H](C)[C@H](NC(=O)[C@H](Cc1c[nH]c2ccccc12)NC(=O)[C@@H](NC(=O)CNC(=O)[C@H](Cc1ccccc1)NC(=O)[C@H](CO)NC(=O)[C@@H](NC(=O)[C@@H](N)CC(C)C)C(C)C)C(C)C)C(=O)N[C@@H](CCCNC(=N)N)C(=O)O [Epitope P4] occupy?
Result string: middle

Query string: Which bin, given its inhibition at 5 µM, does CC(C)C[C@H](NC(=O)[C@H](C)NC(=O)[C@H](CO)NC(=O)[C@H](C)NC(=O)[C@@H](NC(=O)[C@H](CC(=O)O)NC(=O)[C@H](CC(C)C)NC(=O)[C@@H](N)CC(C)C)[C@@H](C)O)C(=O)N[C@@H](Cc1ccc(O)cc1)C(=O)O [Epitope P111] occupy?
Result string: middle

Query string: Which bin, given its inhibition at 5 µM, does CSCC[C@H](NC(=O)[C@@H](N)CO)C(=O)N[C@@H](Cc1ccc(O)cc1)C(=O)N1CCC[C@H]1C(=O)N[C@@H](CO)C(=O)N[C@@H](CS)C(=O)N[C@@H](CS)C(=O)N[C@@H](CS)C(=O)N[C@H](C(=O)N[C@@H](CCCCN)C(=O)O)[C@@H](C)O [Epitope P13] (H-SMYPSCCCTK-OH; N-terminus and C-terminus assumed) occupy?
Result string: high

Query string: Which bin, given its inhibition at 5 µM, does CC(C)[C@H](N)C(=O)N[C@@H](CS)C(=O)N[C@@H](C)C(=O)N1CCC[C@H]1C(=O)N[C@@H](C)C(=O)N1CCC[C@H]1C(=O)N[C@@H](CS)C(=O)N[C@@H](CC(N)=O)C(=O)N[C@@H](Cc1ccccc1)C(=O)O [Epitope P26] (H-VCAPAPCNF-OH; N-terminus and C-terminus assumed) occupy?
Result string: middle

###

Below: a set of entries, each annotated with reported pIC50.
- tgt: HLA-A0207 (Homo sapiens, UniProt P04439, D140Y/D185E/D98H/E176V/E277Q/G131W/G231S/I119V/I121R/I166T/I218V/L300P/L318F/N151K/N90K/P208A/P217A/Q86G/Q94H/R138H/R169H/T345S/Y123C)
- Construct: expressed in transfected cells; host or cells: HMy2.CIR
- measurement_protocol: cell-based
- Format: binding
- Method: HMy2.CIR cell line was purchased (Zhongqiao xinzhou Biotech, Shanghai) and maintained in complete IMDM medium with 10% FCS and 1% penicillin/streptomycin. […] The plate was centrifuged at 600 rpm for 5 min at room temperature (RT). […] Finally, cells were resuspended with 150 μL PBS and analyzed with flow cytometry. […] Binding affinity of unlabeled peptide with the indicated HLA-A molecule is assessed by IC50.
pIC50: −log10 of the molar value. Residues, ends and D or L forms follow the SMILES beside them.

[[record]]
molecule = "CSCC[C@H](NC(=O)[C@H](CC(N)=O)NC(=O)[C@@H](NC(=O)[C@H](CC(N)=O)NC(=O)[C@@H](NC(=O)[C@H](Cc1ccc(O)cc1)NC(=O)[C@@H](N)CO)C(C)C)C(C)C)C(=O)NCC(=O)N[C@@H](CC(C)C)C(=O)O [Epitope P53] (H-SYVNVNMGL-OH; N-terminus and C-terminus assumed)"
endpoint_value = "< 4.82"


// moving on: another record for pIC50
Memo: CC(C)C[C@H](NC(=O)[C@@H](N)Cc1ccccc1)C(=O)N1CCC[C@H]1C(=O)N[C@@H](CO)C(=O)N[C@@H](CC(=O)O)C(=O)N[C@@H](Cc1ccccc1)C(=O)N[C@@H](Cc1ccccc1)C(=O)N1CCC[C@H]1C(=O)N[C@@H](CO)C(=O)O [Epitope P67] (H-FLPSDFFPS-OH; N-terminus and C-terminus assumed) , reported pIC50: < 4.82

###

- Tested on: twelve prevalent HLA-A allotypes
- measurement_protocol: Peptide competitive binding assay, whole panel
- Design: species or system human
- recorded_conditions: high = IC50<5μM
Residues, ends and D or L forms follow the SMILES beside them.
recorded_metric: number of HLA-A allotypes bound with high affinity

For orientation, consider the following solved cases.
[[record]]
molecule = "CC[C@H](C)[C@H](NC(=O)[C@H](CO)NC(=O)[C@@H]1CCCN1C(=O)[C@H](Cc1ccccc1)NC(=O)[C@H](Cc1ccccc1)NC(=O)[C@H](CC(=O)O)NC(=O)[C@H](CO)NC(=O)[C@@H]1CCCN1C(=O)[C@H](CC(C)C)NC(=O)[C@@H](N)Cc1ccccc1)C(=O)O [Epitope P31]"
endpoint_value = "three"

[[record]]
molecule = "CC[C@H](C)[C@H](NC(=O)CNC(=O)[C@H](CC(C)C)NC(=O)[C@H](CO)NC(=O)[C@H](CC(C)C)NC(=O)[C@H](CC(C)C)NC(=O)[C@@H](N)Cc1ccccc1)C(=O)N[C@@H](Cc1c[nH]cn1)C(=O)N[C@@H](CC(C)C)C(=O)O [Epitope P10]"
endpoint_value = "two"

[[record]]
molecule = "CC(C)C[C@H](NC(=O)[C@H](CC(N)=O)NC(=O)CNC(=O)[C@H](Cc1c[nH]cn1)NC(=O)[C@H](C)NC(=O)[C@H](CC(N)=O)NC(=O)[C@@H](NC(=O)[C@@H](N)[C@@H](C)O)C(C)C)C(=O)N1CCC[C@H]1C(=O)N[C@@H](CCCCN)C(=O)O [Epitope P47] (H-TVNAHGNLPK-OH; N-terminus and C-terminus assumed)"
endpoint_value = "two"

[[record]]
molecule = "CC[C@H](C)[C@H](NC(=O)[C@H](Cc1c[nH]c2ccccc12)NC(=O)[C@@H](NC(=O)CNC(=O)[C@H](Cc1ccccc1)NC(=O)[C@H](CO)NC(=O)[C@@H](NC(=O)[C@H](CC(C)C)NC(=O)[C@@H](N)Cc1ccc(O)cc1)C(C)C)C(C)C)C(=O)O [Epitope P11]"
endpoint_value = "two"

[[record]]
molecule = "CC(C)C[C@H](NC(=O)[C@H](CO)NC(=O)[C@H](CC(C)C)NC(=O)[C@@H](N)Cc1c[nH]c2ccccc12)C(=O)N[C@@H](CC(C)C)C(=O)N[C@H](C(=O)N1CCC[C@H]1C(=O)N[C@@H](Cc1ccccc1)C(=O)N[C@H](C(=O)O)C(C)C)C(C)C [Epitope P7]"
endpoint_value = "three"


// moving on: another record for number of HLA-A allotypes bound with high affinity
Memo: CC(C)C[C@H](NC(=O)[C@@H](NC(=O)[C@H](CCC(N)=O)NC(=O)[C@H](Cc1c[nH]cn1)NC(=O)[C@H](C)NC(=O)[C@H](CC(N)=O)NC(=O)[C@@H](NC(=O)[C@@H](N)[C@@H](C)O)C(C)C)C(C)C)C(=O)N1CCC[C@H]1C(=O)N[C@@H](CCCCN)C(=O)O [Epitope P48] (H-TVNAHQVLPK-OH; N-terminus and C-terminus assumed) , reported number of HLA-A allotypes bound with high affinity: two

These data points were gathered from paper PMC9021956.
